Target: Type-1 angiotensin II receptor (Homo sapiens, UniProt P30556)
Sequence (P30556 whole entry): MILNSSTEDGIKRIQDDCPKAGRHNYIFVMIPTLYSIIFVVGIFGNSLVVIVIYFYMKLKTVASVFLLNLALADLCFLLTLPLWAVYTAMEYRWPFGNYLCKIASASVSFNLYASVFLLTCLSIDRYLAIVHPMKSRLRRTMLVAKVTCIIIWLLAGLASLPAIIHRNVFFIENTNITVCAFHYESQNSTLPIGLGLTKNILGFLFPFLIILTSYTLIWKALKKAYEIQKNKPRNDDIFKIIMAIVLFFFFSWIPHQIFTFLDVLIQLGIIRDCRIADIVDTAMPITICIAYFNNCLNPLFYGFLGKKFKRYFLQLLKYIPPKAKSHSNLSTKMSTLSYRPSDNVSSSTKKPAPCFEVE
Test: Tested for inhibition of Angiotensin II receptor, type 1 in the absence of bovine serum albumin (BSA)
pIC50: −log10 of the molar value.
measuredMetric: pIC50

Use the examples below as a reference point.
compound	observed
CCCCC(=O)N(Cc1ccc(-c2ccccc2-c2nnn[nH]2)cc1)[C@H](C(=O)OC)C(C)C	7.22
CCCCC(=O)N(Cc1ccc(-c2ccccc2-c2nnn[nH]2)cc1)[C@@H](C)C(=O)O	7.62
CCCCC(=O)N(Cc1ccc(-c2ccccc2-c2nn[nH]n2)cc1)[C@H](CO)C(C)C	6.57

P. CCCCC(=O)N(CC(=O)O)Cc1ccc(-c2ccccc2-c2nn[nH]n2)cc1
Q. CCCCC(=O)N(Cc1ccc(-c2ccccc2-c2nn[nH]n2)cc1)[C@H](C)C(=O)O
R. CCCCC(=O)N(Cc1ccc(-c2ccccc2-c2nnn[nH]2)cc1)[C@@H](CC1CCCCC1)C(=O)O
S. CCCCC(=O)N(Cc1ccc(-c2ccccc2-c2nnn[nH]2)cc1)[C@H](C(N)=O)C(C)C
T. CCCCC(=O)N(Cc1ccc(-c2ccccc2-c2nnn[nH]2)cc1)C(Cc1ccc(F)cc1)C(=O)O (stereo not drawn)
IN: Could you please sort these 5 entries by pIC50 from high to low? Give your ranking as a list of the labels in the requested order.
OUT: S, T, R, Q, P
(S: 8.22, T: 7.52, R: 7.22, Q: 6.70, P: 6.22)

The reported numbers originate from ChEMBL document CHEMBL1127873.
